- procedure-text: NCI Yeast Anticancer Drug Screen. Data for the mec2-1 strain (AID 157)
- applied-conditions: S. cerevisiae mec2-1 strain, at 50.0 µM, hits give high values
This is part of a sample that, as a whole, favours compounds with a hit. Of some 79,000 tested, about 15% had one in any assay.
Attribute: growth inhibition
measure: growth inhibition (%)

compound=CCCCCCCCCCCCCCCC(=O)Oc1ccc(/C(CC)=C(/CC)c2ccc(OC(=O)CCCCCCCCCCCCCCC)cc2)cc1 experimental_value=-8.1
compound="O=S(=O)(NCC(Cl)CCl)c1ccccc1 (stereo unspecified)" experimental_value=-2.8
compound=CCOC(=O)/C=C(\C)c1ccc(OC)cc1 experimental_value=-22.4
compound=NC(=O)NC(=O)c1ccccc1 experimental_value=-15.2
compound=CCN(CC)CCNc1nc(N)c(C#N)c(C#N)c1C#N experimental_value=-14.4
compound="O=C(/C=C/CBr)NC(Cc1ccccc1)C(=O)O (stereo unspecified)" experimental_value=-8.6
